Value source: paper PMC5700166

- Measurement Target: GST-Dm-Relish (Drosophila melanogaster, UniProt Q94527 99-473)
- Sequence: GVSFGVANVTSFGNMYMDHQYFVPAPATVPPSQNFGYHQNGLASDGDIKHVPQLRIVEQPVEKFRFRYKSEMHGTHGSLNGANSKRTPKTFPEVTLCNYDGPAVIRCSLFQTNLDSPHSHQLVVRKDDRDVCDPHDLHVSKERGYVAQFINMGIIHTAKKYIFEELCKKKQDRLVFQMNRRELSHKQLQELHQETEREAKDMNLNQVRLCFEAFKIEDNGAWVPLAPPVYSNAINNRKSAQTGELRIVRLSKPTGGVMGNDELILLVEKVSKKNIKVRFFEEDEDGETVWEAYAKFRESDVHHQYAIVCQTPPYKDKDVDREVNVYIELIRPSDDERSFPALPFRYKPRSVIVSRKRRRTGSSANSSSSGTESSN
- Experiment: protein-binding microarray (PBM); PBM: ~300 nM protein, 6 mM HEPES pH 7.8, 80 mM KCl, 0.5 mM EDTA, 0.5 mM EGTA, 6% glycerol, 35 ng/ul poly-dIdC, 1% milk, 1 h, room temperature; high values mean tight binding
- Study Conditions: dsDNA, one strand shown
Recorded binding signal by entry
Number in z-score, nothing else.

Example sequences with recorded binding signal:
CCGATTAACATCAGGAAAGTACCTGATGTTAATCGGGTCTTGATTCGCTTGACGCTGCTG : 8.08
CCGATTAACATCAAGGAAAATACTGATGTTAATCGGGTCTTGATTCGCTTGACGCTGCTG : 1.2
CCGATTAACATCAAGGAATTTTCTGATGTTAATCGGGTCTTGATTCGCTTGACGCTGCTG : 1.93
CCGATTAACATCAAAACCCCCCCTGATGTTAATCGGGTCTTGATTCGCTTGACGCTGCTG : 9.97
CCGATTAACATCACGGGATTTTCTGATGTTAATCGGGTCTTGATTCGCTTGACGCTGCTG : 6.84

Summary for this sequence, CCGATTAACATCAGGGGGAGTCATGATGTTAATCGGGTCTTGATTCGCTTGACGCTGCTG : binding signal is 3.88

Query CCGATTAACATCAAAGTGTCCCCTGATGTTAATCGGGTCTTGATTCGCTTGACGCTGCTG yields binding signal of 1.98

Note to self: binding signal recorded for CCGATTAACATCAAGGGGTTCCCTGATGTTAATCGGGTCTTGATTCGCTTGACGCTGCTG was 9.46

The sequence listed as CCGATTAACATCAAAATCTTCCCTGATGTTAATCGGGTCTTGATTCGCTTGACGCTGCTG shows binding signal equal to 1.48

###

- Measurement Target: GST-Ap-NF-kB RHD (Exaiptasia pallida (Aiptasia), UniProt A0A913YAJ5 2-422)
- Sequence: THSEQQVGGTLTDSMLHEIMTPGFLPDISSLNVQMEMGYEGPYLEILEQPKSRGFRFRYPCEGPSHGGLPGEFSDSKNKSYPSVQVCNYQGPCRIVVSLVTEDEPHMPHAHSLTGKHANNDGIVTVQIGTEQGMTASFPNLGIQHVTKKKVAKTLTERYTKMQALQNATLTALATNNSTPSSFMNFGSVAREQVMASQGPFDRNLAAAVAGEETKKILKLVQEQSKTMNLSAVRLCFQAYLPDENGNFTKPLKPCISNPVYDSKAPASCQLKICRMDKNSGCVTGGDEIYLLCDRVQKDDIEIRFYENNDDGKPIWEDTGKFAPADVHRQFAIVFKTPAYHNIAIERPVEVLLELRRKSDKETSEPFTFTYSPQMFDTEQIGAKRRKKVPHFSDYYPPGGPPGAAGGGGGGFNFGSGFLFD
- Experiment: protein-binding microarray (PBM); PBM: ~300 nM protein, 6 mM HEPES pH 7.8, 80 mM KCl, 0.5 mM EDTA, 0.5 mM EGTA, 6% glycerol, 35 ng/ul poly-dIdC, 1% milk, 1 h, room temperature; high values mean tight binding
- Study Conditions: dsDNA, one strand shown
// reported binding signal for each item listed
Kindly answer with a numeric value in z-score, unit omitted.

Here's what some known entries look like.
CCGATTAACATCAGGGGGTCTACTGATGTTAATCGGGTCTTGATTCGCTTGACGCTGCTG : 4.22
CCGATTAACATCAAGATTCCCCCTGATGTTAATCGGGTCTTGATTCGCTTGACGCTGCTG : 8.66
CCGATTAACATCAGGCAAATCCCTGATGTTAATCGGGTCTTGATTCGCTTGACGCTGCTG : 1.95
CCGATTAACATCACTATTTCCCCTGATGTTAATCGGGTCTTGATTCGCTTGACGCTGCTG : 6.35
CCGATTAACATCAAAAATTCCCGTGATGTTAATCGGGTCTTGATTCGCTTGACGCTGCTG : 5.97
CCGATTAACATCAGACCCCCCCCTGATGTTAATCGGGTCTTGATTCGCTTGACGCTGCTG : 5.15
CCGATTAACATCAGGATTGTCCCTGATGTTAATCGGGTCTTGATTCGCTTGACGCTGCTG : 2.96
CCGATTAACATCAGGAACTTCCCTGATGTTAATCGGGTCTTGATTCGCTTGACGCTGCTG : 4.62

Please fill in: binding signal reported for CCGATTAACATCACTATATTCCCTGATGTTAATCGGGTCTTGATTCGCTTGACGCTGCTG = 3.08

###

- Measurement Target: GST-Ap-NF-kB RHD (Exaiptasia pallida (Aiptasia), UniProt A0A913YAJ5 2-422)
- Sequence: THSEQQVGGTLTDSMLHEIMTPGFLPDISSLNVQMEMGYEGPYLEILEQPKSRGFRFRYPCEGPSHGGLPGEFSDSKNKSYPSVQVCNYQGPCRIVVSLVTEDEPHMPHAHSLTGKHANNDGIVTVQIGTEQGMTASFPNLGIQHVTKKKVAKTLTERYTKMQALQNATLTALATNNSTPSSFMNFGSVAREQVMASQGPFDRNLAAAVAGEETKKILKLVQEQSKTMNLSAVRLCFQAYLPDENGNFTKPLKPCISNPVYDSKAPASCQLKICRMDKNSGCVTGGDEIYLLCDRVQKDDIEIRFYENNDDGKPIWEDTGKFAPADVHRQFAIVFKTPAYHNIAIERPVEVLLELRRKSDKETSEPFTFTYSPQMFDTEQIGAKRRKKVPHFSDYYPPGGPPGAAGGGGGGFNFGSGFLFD
- Experiment: protein-binding microarray (PBM); PBM: ~300 nM protein, 6 mM HEPES pH 7.8, 80 mM KCl, 0.5 mM EDTA, 0.5 mM EGTA, 6% glycerol, 35 ng/ul poly-dIdC, 1% milk, 1 h, room temperature; high values mean tight binding
- Study Conditions: dsDNA, one strand shown
Reported Property: binding signal (z-score)
State the answer as a number, implicitly in z-score.

Would you please look over these solved cases?
CCGATTAACATCAGGGAGTTTTATGATGTTAATCGGGTCTTGATTCGCTTGACGCTGCTG : 5.33
CCGATTAACATCAAAAGAGTCCCTGATGTTAATCGGGTCTTGATTCGCTTGACGCTGCTG : 5.39
CCGATTAACATCAGGGAAAAGTATGATGTTAATCGGGTCTTGATTCGCTTGACGCTGCTG : 3.35

Note to self: binding signal recorded for CCGATTAACATCACGATTTCCCCTGATGTTAATCGGGTCTTGATTCGCTTGACGCTGCTG was 7.82

The reported binding signal of the sequence CCGATTAACATCAGAATATCCCATGATGTTAATCGGGTCTTGATTCGCTTGACGCTGCTG was 2.05

Sample CCGATTAACATCACGTTTTTCCCTGATGTTAATCGGGTCTTGATTCGCTTGACGCTGCTG ; binding signal observed: 3.81

Field binding signal (entry CCGATTAACATCAGGGAATACACTGATGTTAATCGGGTCTTGATTCGCTTGACGCTGCTG ) reads 2.66

What the record says about CCGATTAACATCAGAAACACCCCTGATGTTAATCGGGTCTTGATTCGCTTGACGCTGCTG : binding signal is 3.57

get_value(item= CCGATTAACATCAGGGGGGATTATGATGTTAATCGGGTCTTGATTCGCTTGACGCTGCTG , readout=binding signal) returns 8.28

###

// reported binding signal for each item listed
- Measurement Target: GST-Ap-NF-kB RHD (Exaiptasia pallida (Aiptasia), UniProt A0A913YAJ5 2-422)
- Sequence: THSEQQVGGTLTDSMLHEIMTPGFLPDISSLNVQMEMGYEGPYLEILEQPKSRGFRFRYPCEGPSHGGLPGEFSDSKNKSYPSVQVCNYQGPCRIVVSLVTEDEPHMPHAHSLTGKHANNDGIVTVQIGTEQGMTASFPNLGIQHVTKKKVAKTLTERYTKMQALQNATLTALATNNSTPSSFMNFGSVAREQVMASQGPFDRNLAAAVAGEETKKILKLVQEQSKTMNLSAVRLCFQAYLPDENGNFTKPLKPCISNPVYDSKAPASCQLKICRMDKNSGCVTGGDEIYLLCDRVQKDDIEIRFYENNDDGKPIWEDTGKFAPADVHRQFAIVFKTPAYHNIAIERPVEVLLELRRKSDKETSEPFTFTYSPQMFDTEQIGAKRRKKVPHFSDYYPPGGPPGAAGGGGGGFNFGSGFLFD
- Experiment: protein-binding microarray (PBM); PBM: ~300 nM protein, 6 mM HEPES pH 7.8, 80 mM KCl, 0.5 mM EDTA, 0.5 mM EGTA, 6% glycerol, 35 ng/ul poly-dIdC, 1% milk, 1 h, room temperature; Ap Aiptasia and Nv Nematostella (sea anemones) / Co Capsaspora / Aq Amphimedon (sponge) / Dm Drosophila / Hu human; RHD is the Rel homology domain; high values mean tight binding
- Study Conditions: dsDNA, one strand shown
Express it in z-score; write the number only.

Completed entries (count: 2):
CCGATTAACATCAGGGATTTCTATGATGTTAATCGGGTCTTGATTCGCTTGACGCTGCTG : 4.28
CCGATTAACATCAAGGATTCCCGTGATGTTAATCGGGTCTTGATTCGCTTGACGCTGCTG : 2.73

Value (binding signal, GST-Ap-NF-kB RHD (Exaiptasia pallida (Aiptasia), UniProt A0A913YAJ5 2-422)) for record CCGATTAACATCAGGAGGTTCCCTGATGTTAATCGGGTCTTGATTCGCTTGACGCTGCTG = 2.28

The measured binding signal that CCGATTAACATCAAAGCCCCCCCTGATGTTAATCGGGTCTTGATTCGCTTGACGCTGCTG showed for GST-Ap-NF-kB RHD (Exaiptasia pallida (Aiptasia), UniProt A0A913YAJ5 2-422) is 5.97

The measured binding signal that CCGATTAACATCAGTCCCCCCCATGATGTTAATCGGGTCTTGATTCGCTTGACGCTGCTG showed for GST-Ap-NF-kB RHD (Exaiptasia pallida (Aiptasia), UniProt A0A913YAJ5 2-422) is 5.83
